- measured.on: Sodium-dependent serotonin transporter (Rattus norvegicus)
- Sequence (P31652 whole entry): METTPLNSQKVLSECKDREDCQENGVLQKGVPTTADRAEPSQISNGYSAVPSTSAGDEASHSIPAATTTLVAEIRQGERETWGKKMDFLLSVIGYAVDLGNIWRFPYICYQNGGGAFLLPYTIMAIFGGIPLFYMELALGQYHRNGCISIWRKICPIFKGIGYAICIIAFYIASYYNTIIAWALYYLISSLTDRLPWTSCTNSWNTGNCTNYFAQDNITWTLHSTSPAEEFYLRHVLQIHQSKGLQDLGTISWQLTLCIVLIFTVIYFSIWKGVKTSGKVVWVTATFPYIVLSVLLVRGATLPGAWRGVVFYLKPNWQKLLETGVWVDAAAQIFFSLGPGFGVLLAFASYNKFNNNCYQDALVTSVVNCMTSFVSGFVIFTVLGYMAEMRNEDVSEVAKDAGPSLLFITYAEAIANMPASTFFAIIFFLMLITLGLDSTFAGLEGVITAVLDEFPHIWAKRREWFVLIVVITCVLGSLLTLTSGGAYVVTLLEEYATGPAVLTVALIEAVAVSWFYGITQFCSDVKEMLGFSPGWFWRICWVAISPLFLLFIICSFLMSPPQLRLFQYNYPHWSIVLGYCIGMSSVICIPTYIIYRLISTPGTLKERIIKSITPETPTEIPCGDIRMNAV
- protocol.description: Inhibition of [3H]5-HT uptake by Serotonin transporter of rat midbrain or parietal synaptosomes
pKi: −log10 of the molar value.
Decision: pKi >= 7 yields T, all other cases yield F.

## Input Please indicate if the recorded pKi for `COC(=O)[C@@H]1CN(C)CC[C@@H]1c1ccc(Cl)cc1` meets or exceeds 7.
## Output F

## Input Does `C=CCc1ccc([C@H]2CCN(C)C[C@H]2C(=O)OC)cc1` have a reported pKi of at least 7?
## Output F

## Input Is the recorded value of pKi equal to or greater than 7 for this molecule? `C#Cc1ccc([C@H]2CCN(C)C[C@H]2C(=O)OC)cc1`
## Output F

## Input Hi team, for `COC(=O)[C@@H]1CN(C)CC[C@H]1c1ccc2ccccc2c1` , is the recorded pKi at or above 7?
## Output F

## Input Is it the case that `COC(=O)[C@H]1CN(C)CC[C@H]1c1ccc2ccccc2c1` has pKi reaching or exceeding 7?
## Output T
